List of pEC50 values.
Target Or Test System: human α7 nicotinic acetylcholine receptor (HEK cell line stably expressing human RIC-3 and human α7) (Homo sapiens, UniProt P36544)
Construct: host or cells: HEK cell line (PrecisION hnAChR α7/RIC-3)
Sequence (P36544 23-502): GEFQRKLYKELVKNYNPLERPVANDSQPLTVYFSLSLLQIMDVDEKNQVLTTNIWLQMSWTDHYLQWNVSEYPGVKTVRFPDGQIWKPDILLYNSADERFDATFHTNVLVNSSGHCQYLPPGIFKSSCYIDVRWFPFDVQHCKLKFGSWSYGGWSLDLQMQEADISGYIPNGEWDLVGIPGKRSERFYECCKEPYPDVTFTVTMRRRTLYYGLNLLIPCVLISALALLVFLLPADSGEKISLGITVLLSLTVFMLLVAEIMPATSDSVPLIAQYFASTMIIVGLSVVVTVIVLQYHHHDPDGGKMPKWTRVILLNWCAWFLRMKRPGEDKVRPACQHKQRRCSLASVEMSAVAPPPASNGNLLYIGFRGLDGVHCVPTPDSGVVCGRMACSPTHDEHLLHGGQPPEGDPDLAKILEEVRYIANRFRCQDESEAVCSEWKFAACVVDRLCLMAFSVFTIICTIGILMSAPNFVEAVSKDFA
Test Description: Automated patch-clamp electrophysiology functional assay (Assay A), IonFlux HT, whole-cell population patch
Format: cell-based
Setup Conditions: HEK cells expressing human α7/RIC-3; test compound with or without 40 μM acetylcholine; holding potential −60 mV; room temperature; read-out: α7 nAChR Potency
pEC50: −log10 of the molar value.

Guide cases for pEC50, answers given:
Molecule: NS(=O)(=O)N1CCC2(CC2c2nc(-c3cccc(OC(F)F)c3)no2)C(F)C1 (stereo not drawn) [Example 4]
pEC50: 6.30 to 7.00
//
Molecule: COc1ccc(Cl)cc1-c1noc(C2CC23CCN(S(=O)(=O)c2ccn(C)n2)CC3)n1 (racemic)
pEC50: 5.30 to 6.30
//
Molecule: CC1CCCC(c2nc([C@@H]3CC34CCN(S(N)(=O)=O)CC4)no2)C1 (mixture of isomers)
pEC50: 5.30 to 6.30

Could you share which pEC50 value was measured for NS(=O)(=O)N1CCC2(CC1)[C@H](c1noc(-c3cnn4c3CCCC4)n1)C2(F)F ?
5.30 to 6.30
